target: human ORL-1 receptor (opioid receptor like 1) (human, UniProt P41146 1-370); assay: cell-based or functional assay
Sequence (P41146 whole entry): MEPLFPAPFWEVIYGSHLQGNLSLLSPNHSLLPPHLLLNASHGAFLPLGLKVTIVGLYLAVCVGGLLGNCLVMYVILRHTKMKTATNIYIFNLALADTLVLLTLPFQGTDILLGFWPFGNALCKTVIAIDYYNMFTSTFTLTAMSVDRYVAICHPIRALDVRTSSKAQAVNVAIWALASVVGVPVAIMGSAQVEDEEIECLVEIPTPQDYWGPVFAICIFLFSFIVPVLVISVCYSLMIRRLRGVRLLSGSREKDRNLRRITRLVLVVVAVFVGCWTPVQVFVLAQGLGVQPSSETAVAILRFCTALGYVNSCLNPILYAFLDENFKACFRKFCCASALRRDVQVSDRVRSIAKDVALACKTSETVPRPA
Square brackets hold non-standard residues; d marks the D form. * marks the point of attachment. Phe(4-CH2NH2) = NCc1ccc(C[C@H](N)C(=O)O)cc1; hPhe = N[C@@H](CCc1ccccc1)C(=O)O; Pentanoyl = CCCCC(=O)*
REPORTED PROPERTY: % Stimulation of [35S]GTPγS binding

Please review the entries below; each comes with its answer.
{"BINDER": "Ac-RY[Phe(4-CH2NH2)]RWR-NH2 (SMILES CC(=O)N[C@@H](CCCNC(=N)N)C(=O)N[C@@H](Cc1ccc(O)cc1)C(=O)N[C@@H](Cc1ccc(CN)cc1)C(=O)N[C@@H](CCCNC(=N)N)C(=O)N[C@@H](Cc1c[nH]c2ccccc12)C(=O)N[C@@H](CCCNC(=N)N)C(N)=O, also called Ac-Arg-Tyr-Phe(4-CH2NH2)-Arg-Trp-Arg-NH2) [VII-79-A]", "% Stimulation of [35S]GTPγS binding": "< 20%"}
{"BINDER": "Pentanoyl-RYYRWR-NH2 (SMILES CCCCC(=O)N[C@@H](CCCNC(=N)N)C(=O)N[C@@H](Cc1ccc(O)cc1)C(=O)N[C@@H](Cc1ccc(O)cc1)C(=O)N[C@@H](CCCNC(=N)N)C(=O)N[C@@H](Cc1c[nH]c2ccccc12)C(=O)N[C@@H](CCCNC(=N)N)C(N)=O, also called Pentanoyl-Arg-Tyr-Tyr-Arg-Trp-Arg-NH2; Pentanoyl-RYYRWR-NH2) [VII-7-B]", "% Stimulation of [35S]GTPγS binding": "< 20%"}

Ask: What does the data say about its % Stimulation of [35S]GTPγS binding? Entry: Ac-R[hPhe][hPhe]RWR-NH2 (SMILES CC(=O)N[C@@H](CCCNC(=N)N)C(=O)N[C@@H](CCc1ccccc1)C(=O)N[C@@H](CCc1ccccc1)C(=O)N[C@@H](CCCNC(=N)N)C(=O)N[C@@H](Cc1c[nH]c2ccccc12)C(=O)N[C@@H](CCCNC(=N)N)C(N)=O, also called Ac-Arg-hPhe-hPhe-Arg-Trp-Arg-NH2) [VII-49-B]
Result: < 20%
